Entries and their fold change of Tryptamine concentration values follow.
system: Clostridium sporogenes DSM 1664; experiment: fold change of Tryptamine concentration vs plate DMSO controls (fold change (ratio)); higher = more amine produced; conditions: 5 µM; incubation time: 27 h, anaerobic, 37 °C

Here's what some known entries look like.
[
  {
    "molecule": "CC=CC1=C(C(=O)O)N2C(=O)[C@@H](NC(=O)[C@H](N)c3ccc(O)cc3)[C@H]2SC1",
    "tgt": "Clostridium sporogenes DSM 1664",
    "fold change of Tryptamine concentration": 0.974
  },
  {
    "molecule": "CC(=O)Oc1ccccc1C(=O)Nc1ncc([N+](=O)[O-])s1 [Nitazoxanide]",
    "tgt": "Clostridium sporogenes DSM 1664",
    "fold change of Tryptamine concentration": 0.314
  }
]

# input Form entry - test system: Clostridium sporogenes DSM 1664; read-out: fold change of Tryptamine concentration; molecule: NCc1ccccc1CC(=O)N[C@@H]1C(=O)N2C(C(=O)O)=C(CSc3nnnn3CC(=O)O)CS[C@H]12 [Ceforanide]
# output 0.576

# input Form entry - test system: Clostridium sporogenes DSM 1664; read-out: fold change of Tryptamine concentration; molecule: C[C@]1(Cn2ccnn2)[C@H](C(=O)O)N2C(=O)C[C@H]2S1(=O)=O
# output 1.08

# input Form entry - test system: Clostridium sporogenes DSM 1664; read-out: fold change of Tryptamine concentration; molecule: Cc1cc(C(C#N)c2ccc(Cl)cc2)c(Cl)cc1NC(=O)c1cc(I)cc(I)c1O (stereo unspecified)
# output 0.895

# input Form entry - test system: Clostridium sporogenes DSM 1664; read-out: fold change of Tryptamine concentration; molecule: CC(C)/N=c1\cc2n(-c3ccc(Cl)cc3)c3ccccc3nc-2cc1Nc1ccc(Cl)cc1
# output 0.365

* * *

Entries and their growth values follow.
tested on: Clostridium sporogenes DSM 1664; assay: growth (OD595) fold change vs plate DMSO controls (fold change (ratio)); higher = more growth; conditions: 10 µM; incubation time: 27 h, anaerobic, 37 °C
Structures can show the parent of a compound that is named as a salt.
Give the value as a plain number.

[
  {
    "compound": "N[C@@H](C(=O)N[C@@H]1C(=O)N2C(C(=O)O)=C(Cl)CC[C@H]12)c1ccccc1 [Loracarbef]",
    "growth": -0.0388
  },
  {
    "compound": "CC(C)/N=c1\\cc2n(-c3ccc(Cl)cc3)c3ccccc3nc-2cc1Nc1ccc(Cl)cc1 [Clofazimine]",
    "growth": 0.578
  },
  {
    "compound": "CC(=O)Oc1ccccc1C(=O)Nc1ncc([N+](=O)[O-])s1 [Nitazoxanide]",
    "growth": -0.0196
  },
  {
    "compound": "CC(=O)OCC1=C(C(=O)O)N2C(=O)[C@@H](NC(=O)Cc3cccs3)[C@H]2SC1 [Cephalothin sodium salt]",
    "growth": -0.0343
  },
  {
    "compound": "Oc1c(Cl)cc(Cl)c(Cl)c1Cc1c(O)c(Cl)cc(Cl)c1Cl [Hexachlorophene]",
    "growth": -0.0128
  },
  {
    "compound": "CC=CC1=C(C(=O)O)N2C(=O)[C@@H](NC(=O)[C@H](N)c3ccc(O)cc3)[C@H]2SC1 [Cefprozil]",
    "growth": 0.573
  }
]

# input Entry under review: C[C@]1(Cn2ccnn2)[C@H](C(=O)O)N2C(=O)C[C@H]2S1(=O)=O [Tazobactam] . Reported growth?
# output 0.648

# input Entry under review: Cc1ncc([N+](=O)[O-])n1CC(C)O (stereo not drawn) [Secnidazole] . Reported growth?
# output -0.0233

* * *

tested on: Clostridium sporogenes DSM 1664; assay: fold change of Tryptamine concentration vs plate DMSO controls (fold change (ratio)); higher = more amine produced; details: 1.25 µM; incubation time: 27 h, anaerobic, 37 °C
Counter-ions that a name gives are not always drawn.
Outcome label depends on fold change of Tryptamine concentration relative to 0.9: at/above gives 1.0, below gives 0.0.

[
  {
    "compound": "Cc1cc(C(C#N)c2ccc(Cl)cc2)c(Cl)cc1NC(=O)c1cc(I)cc(I)c1O (stereo unspecified)",
    "class assignment": 1.0
  },
  {
    "compound": "CC(=O)OCC1=C(C(=O)O)N2C(=O)[C@@H](NC(=O)Cc3cccs3)[C@H]2SC1 [Cephalothin sodium salt]",
    "class assignment": 0.0
  }
]

# input hey, is fold change of Tryptamine concentration for this one >= 0.9? NCc1ccccc1CC(=O)N[C@@H]1C(=O)N2C(C(=O)O)=C(CSc3nnnn3CC(=O)O)CS[C@H]12 [Ceforanide]
# output 1.0

# input hey, is fold change of Tryptamine concentration for this one >= 0.9? Oc1c(Cl)cc(Cl)c(Cl)c1Cc1c(O)c(Cl)cc(Cl)c1Cl
# output 1.0

# input hey, is fold change of Tryptamine concentration for this one >= 0.9? Cc1ncc([N+](=O)[O-])n1CC(C)O (stereo unspecified)
# output 0.0

# input hey, is fold change of Tryptamine concentration for this one >= 0.9? CC(=O)Oc1ccccc1C(=O)Nc1ncc([N+](=O)[O-])s1 [Nitazoxanide]
# output 1.0

# input hey, is fold change of Tryptamine concentration for this one >= 0.9? N[C@@H](C(=O)N[C@@H]1C(=O)N2C(C(=O)O)=C(Cl)CC[C@H]12)c1ccccc1
# output 0.0

* * *

system: Clostridium sporogenes DSM 1664; experiment: growth (OD595) fold change vs plate DMSO controls (fold change (ratio)); higher = more growth; conditions: 10 µM; incubation time: 27 h, anaerobic, 37 °C
value kind: growth

Here's what some known entries look like.
[
  {
    "compound": "NCc1ccccc1CC(=O)N[C@@H]1C(=O)N2C(C(=O)O)=C(CSc3nnnn3CC(=O)O)CS[C@H]12 [Ceforanide]",
    "growth": -0.0035
  },
  {
    "compound": "O=C1NCCN1c1ncc([N+](=O)[O-])s1 [Niridazole]",
    "growth": -0.0146
  }
]

Continue with the compound presented below.
# input Entry under review: Cc1cc(C(C#N)c2ccc(Cl)cc2)c(Cl)cc1NC(=O)c1cc(I)cc(I)c1O (stereo not drawn) [Closantel] . Reported growth?
# output 0.364

* * *

tested on: Clostridium sporogenes DSM 1664; experiment: growth (OD595) fold change vs plate DMSO controls (fold change (ratio)); higher = more growth; conditions: 5 µM; incubation time: 27 h, anaerobic, 37 °C
Entries and their growth values follow.
Give the value as a plain number.

# input Entry under review: NCc1ccccc1CC(=O)N[C@@H]1C(=O)N2C(C(=O)O)=C(CSc3nnnn3CC(=O)O)CS[C@H]12 [Ceforanide] . Reported growth?
# output 0.36

* * *

tested on: Clostridium sporogenes DSM 1664; assay: fold change of Tryptamine concentration vs plate DMSO controls (fold change (ratio)); higher = more amine produced; details: 2.5 µM; incubation time: 27 h, anaerobic, 37 °C
Structures can show the parent of a compound that is named as a salt.
value kind: fold change of Tryptamine concentration
Give the value as a plain number.

[
  {
    "molecule": "Cc1ncc([N+](=O)[O-])n1CC(C)O (stereo not drawn)",
    "fold change of Tryptamine concentration": 0.735
  },
  {
    "molecule": "CC(=O)Oc1ccccc1C(=O)Nc1ncc([N+](=O)[O-])s1 [Nitazoxanide]",
    "fold change of Tryptamine concentration": 0.993
  }
]

# input Entry under review: CC(=O)OCC1=C(C(=O)O)N2C(=O)[C@@H](NC(=O)Cc3cccs3)[C@H]2SC1 [Cephalothin sodium salt] . Reported fold change of Tryptamine concentration?
# output 0.0223

* * *

Entries and their fold change of Tryptamine concentration values follow.
test system: Clostridium sporogenes DSM 1664; test: fold change of Tryptamine concentration vs plate DMSO controls (fold change (ratio)); higher = more amine produced; conditions: 5 µM; incubation time: 27 h, anaerobic, 37 °C
Where a name gives a salt, the structure may show the parent alone.

Here's what some known entries look like.
[
  {
    "molecule": "Cc1ncc([N+](=O)[O-])n1CC(C)O (stereo not given)",
    "fold change of Tryptamine concentration": 0.035
  },
  {
    "molecule": "CC(=O)OCC1=C(C(=O)O)N2C(=O)[C@@H](NC(=O)Cc3cccs3)[C@H]2SC1 [Cephalothin sodium salt]",
    "fold change of Tryptamine concentration": 0.0219
  },
  {
    "molecule": "N[C@@H](C(=O)N[C@@H]1C(=O)N2C(C(=O)O)=C(Cl)CC[C@H]12)c1ccccc1",
    "fold change of Tryptamine concentration": 0.0243
  }
]

# input Entry under review: Oc1c(Cl)cc(Cl)c(Cl)c1Cc1c(O)c(Cl)cc(Cl)c1Cl . Reported fold change of Tryptamine concentration?
# output 0.693

# input Entry under review: O=C1NCCN1c1ncc([N+](=O)[O-])s1 . Reported fold change of Tryptamine concentration?
# output 0.0568

* * *

test system: Clostridium sporogenes DSM 1664; assay: fold change of Tryptamine concentration vs plate DMSO controls (fold change (ratio)); higher = more amine produced; settings: 1.25 µM; incubation time: 27 h, anaerobic, 37 °C
value kind: fold change of Tryptamine concentration
Give the value as a plain number.

[
  {
    "smiles code": "CC(C)/N=c1\\cc2n(-c3ccc(Cl)cc3)c3ccccc3nc-2cc1Nc1ccc(Cl)cc1",
    "fold change of Tryptamine concentration": 0.893
  }
]

# input Entry under review: O=C1NCCN1c1ncc([N+](=O)[O-])s1 . Reported fold change of Tryptamine concentration?
# output 0.607

# input Entry under review: CC=CC1=C(C(=O)O)N2C(=O)[C@@H](NC(=O)[C@H](N)c3ccc(O)cc3)[C@H]2SC1 . Reported fold change of Tryptamine concentration?
# output 0.973

# input Entry under review: C[C@]1(Cn2ccnn2)[C@H](C(=O)O)N2C(=O)C[C@H]2S1(=O)=O . Reported fold change of Tryptamine concentration?
# output 1.01
